Biological target: T1, Biotinylated CD3-specific binding domain SEQ ID NO: 14 (biotinylated (site not stated))
T1 construct: Ligand on the neutravidin (NLC) SPR chip
T1 chain: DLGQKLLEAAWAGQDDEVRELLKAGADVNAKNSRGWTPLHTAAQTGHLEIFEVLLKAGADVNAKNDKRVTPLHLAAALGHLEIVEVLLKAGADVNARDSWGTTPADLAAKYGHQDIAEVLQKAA
Test: SPR (ProteOn XPR36), 33 C, multi-trace; biotinylated ligand on chip, binder as analyte
In this section, each of the binders is paired with its reported pKd.
Note: pKd values are expressed as the negative base-10 logarithm of concentration in M.

Recorded pKd, per entry:
Binder #3 (designed binder) MRGSHHHHHHGSDLGKKLLQAARAGQLDEVRELLKAGADVNAKDFKGLTPLHLAAAHGHLEIVEVLLKAGADVNAKDVYGWTPLHWAAAKGHLEIVEVLLKAGADVNAKDWLGITPLHLAASHGHLEIVEVLLKAGADVNAQDKSGKTPADLAARAGHQDIAEVLQKAA; 10.54
Binder #2 (designed binder) MRGSHHHHHHGSDLGKKLLQAARAGQLDEVRELLKAGADVNAKDFKGLTPLHLAAAHGHLEIVEVLLKAGADVNAKDVYGWTPLHWAAASGHLEIVEVLLKAGADVNAKDWLGITPLHLAASHGHLEIVEVLLKAGADVNAQDKSGKTPADLAARAGHQDIAEVLQKAA; 10.49
Binder #1 (designed binder, expressed in E. coli and purified by its His-tag) MRGSHHHHHHGSDLGKKLLQAARAGQLDEVRELLKAGADVNAKDFKGLTPLHLAAAHGHLEIVEVLLKAGADVNAKDVYGWTPLHIAAASGHLEIVEVLLKAGADVNAKDWLGITPLHLAASHGHLEIVEVLLKAGADVNAQDKSGKTPADLAARAGHQDIAEVLQKAA; 10.47

Ask | Identify measured pKd associated with Binder #4 (designed binder) MRGSHHHHHHGSDLGKKLLQAARAGQLDEVRELLKAGADVNAKDFKGLTPLHLAAEHGHLEIVEVLLKAGADVNAKDVYGWTPLHWAAAKGHLEIVEVLLKAGADVNAKDWLGITPLHLAASHGHLEIVEVLLKAGADVNAQDKSGKTPADLAARAGHQDIAEVLQKAA
Reply | 10.72
